- protocol details: Inhibition of BRD4 in human MOLM-14 cells harboring FLT3-ITD mutant assessed as decrease in metabolic activity measured after 72 hrs by MTT assay
parameter: pIC50
Convention used: pIC50 is expressed as -log10 of the molar concentration.

Entry under review: `CN1Cc2cc(N=[S@@](C)(=O)c3ccccc3)ccc2NC1=O` . Reported pIC50?
6.00

* * *

- protocol details: Inhibition of BRD4 in human HEL cells harboring JAK2 V617F mutant assessed as decrease in metabolic activity measured after 72 hrs by MTT assay
parameter: pIC50
Convention used: pIC50 is expressed as -log10 of the molar concentration.

Entry under review: `CN1Cc2cc(N=[S@@](C)(=O)c3ccccc3)ccc2NC1=O` . Reported pIC50?
6.30

All figures here come from BindingDB's records for doi:10.1021/acsmedchemlett.9b00625.
